Assay Name: HILIC, Merck SeQuant ZIC-HILIC, 25 °C, 0.25 mL/min; A: water + 16 mM ammonium formate; B: acetonitrile + 0.1% formic acid, pH 3; gradient (min/%B) 0/97 2/97 10/70 15/10 17/10 18/97 25/97
Experimental Context: stereoisomer not certain
Readout: LC retention time (min)

Here are 6 compounds together with their reported answers.
Compound	LC retention time [min]
Nc1ccn(C2OC(CO)C3OP(=O)(O)OC32)c(=O)n1 (stereo not given) [CYTIDINE 2'-3'-CYCLIC PHOSPHATE]	13.6
CCCCCCCCCCCCCCCC(=O)OCC(COP(=O)(O)OCCN)OC(=O)CCCCCCCCCCCCCCC (stereo not given) [DIPALMITOYL-PHOSPHOETHANOLAMINE]	9.35
CN(CC(=O)O)C(=N)N [CREATINE]	13.9
CC(=O)NCCCCN [N-ACETYLPUTRESCINE]	12.9
CCCC=O [BUTANAL]	1.71
Cc1cc(=O)oc(C)c1C(=O)O [Isodehydracetic acid]	2.33

I: NCCC(=O)NC(Cc1cnc[nH]1)C(=O)O (stereo not given) [CARNOSINE]
II: COC1C(O)C(CO)OC1n1cnc2c(=O)[nH]cnc21 (stereo not given) [2'-O-Methylinosine]
Input pair: I , II . Output: entry with lower LC retention time. Lab log: write the label of the selected item as the result. II
(II: 8.49 min, I: 16 min)

a: NCCS(=O)O [HYPOTAURINE]
b: Cn1c(=O)c2[nH]c(=O)[nH]c2n(C)c1=O [1-3-Dimethyluric acid]
Which entry shows the lesser value of LC retention time here, a or b ? // output: label of the selected item b
(b: 2.19 min, a: 13.9 min)

----------
Assay Name: HILIC, Merck SeQuant ZIC-HILIC, 25 °C, 0.25 mL/min; A: water + 16 mM ammonium formate; B: acetonitrile + 0.1% formic acid, pH 3; gradient (min/%B) 0/97 2/97 10/70 15/10 17/10 18/97 25/97
Experimental Context: stereoisomer not certain
Where a name gives a salt, the structure may show the parent alone.
Readout: LC retention time (min)

Compound	LC retention time [min]
CC(=O)NC1C(O)CC(O)(C(=O)O)OC1C(O)C(O)CO (stereo unspecified) [N-Acetylneuraminic acid]	13.9
O=C(O)C(O)CO (stereo unspecified) [GLYCERATE]	8.39
NCCCCN=C(N)N [AGMATINE SULFATE]	17.2
O=C(O)c1ccc(O)cc1O [2-4-Dihydroxybenzoic acid]	2.18
O=C(O)Cc1ccc(O)cc1 [4-Hydroxyphenylacetic acid]	2.34
CC(CN)C(=O)O (stereo unspecified) [AMINOISOBUTANOATE]	13.4

P: N[C@H](C(=O)O)c1ccc(O)cc1 [4-HYDROXY-L-PHENYLGLYCINE]
Q: COC1=C(OC)C(=O)C(CC=C(C)C)=C(C)C1=O [coenzyme Q1]
Would you kindly point out which of P and Q has the smaller LC retention time figure? Label of pick, please. Q
(Q: 1.53 min, P: 13.3 min)

a: Cc1ncc(COP(=O)(O)O)c(C=O)c1O [PYRIDOXAL-PHOSPHATE]
b: O=C(O)CC(=O)O [MALONATE]
Of a and b , whose reported LC retention time is numerically smaller? Pick one and reply with its label. b

P: CC(C)CC(=O)OC(CC(=O)[O-])C[N+](C)(C)C [Isovaleryl-L-carnitine]
Q: Nc1nc2c(ncn2C2CC(O)C(COP(=O)(O)OP(=O)(O)OP(=O)(O)O)O2)c(=O)[nH]1 (stereo unspecified) [DGTP]
Identify the entry with the smaller LC retention time: P or Q . Selection: enter the item's label. P

P: Cn1cnc2c(ncn2C2OC(CO)C(O)C2O)c1=N (stereo unspecified) [1-METHYLADENOSINE]
Q: O=c1[nH]cc(CO)c(=O)[nH]1 [5-HYDROXYMETHYLURACIL]
For this pair, P and Q , which shows a numerically higher LC retention time? Indicate which entry you chose by stating its label. P
(P: 12.8 min, Q: 8.25 min)
